Origin of measurements: patent US6949522B2

The entries below come with measured pIC50 values attached.
- System: Vero (African green monkey kidney) cells
- Assay overview: in vitro
- Assay type: cell-based
pIC50: −log10 of the molar value.
Property: pIC50

[[record]]
molecule_smiles = "Nc1ccn([C@H]2S[C@@H](CO)C=C2F)c(=O)n1"
result = "< 4.00"

[[record]]
molecule_smiles = "Cc1cn([C@H]2S[C@@H](CO)C=C2F)c(=O)[nH]c1=O"
result = "< 4.00"

[[record]]
molecule_smiles = "Nc1nc(F)nc2c1ncn2[C@@H]1S[C@H](CO)C=C1F"
result = 5.12

[[record]]
molecule_smiles = "Nc1nc(=O)n([C@H]2S[C@@H](CO)C=C2F)cc1F"
result = "< 4.00"

[[record]]
molecule_smiles = "O=c1[nH]cnc2c1ncn2[C@H]1S[C@@H](CO)C=C1F"
result = "< 4.00"

[[record]]
molecule_smiles = "Nc1nc2c(ncn2[C@@H]2S[C@H](CO)C=C2F)c(=O)[nH]1"
result = "< 4.00"

[[record]]
molecule_smiles = "Nc1nc2c(ncn2[C@H]2S[C@@H](CO)C=C2F)c(=O)[nH]1"
result = 4.18

[[record]]
molecule_smiles = "Nc1ncnc2c1ncn2[C@H]1S[C@@H](CO)C=C1F"
result = "< 4.00"

[[record]]
molecule_smiles = "O=c1[nH]cnc2c1ncn2[C@@H]1S[C@H](CO)C=C1F"
result = "< 4.00"


---

- Tested on: mitochondrial cytochrome C oxidase subunit II (COXII) gene
- Assay type: cell-based, human
- Measurement parameters: HepG2, 10 μM, 7 days
Field: label. Allowed values: true (1) (Average ΔCt ± SD COXII DNA < -0.3) or false (0) (Average ΔCt ± SD COXII DNA >= -0.3).

[[record]]
compound = "Nc1ccn([C@@H]2C=C(F)[C@H](CO)O2)c(=O)n1 [Compound 10]"
label_class = "false (0)"

[[record]]
compound = "Nc1ccn([C@@H]2C=C(F)[C@H](CO)O2)c(=O)n1 [Compound 23]"
label_class = "false (0)"

[[record]]
compound = "Nc1nc(=O)n([C@H]2S[C@@H](CO)C=C2F)cc1F"
label_class = "false (0)"

[[record]]
compound = "Nc1ccn([C@@H]2S[C@H](CO)C=C2F)c(=O)n1"
label_class = "false (0)"

[[record]]
compound = "Cc1cn([C@H]2C=C[C@@H](CO)O2)c(=O)[nH]c1=O [D-D4T, β-D-2′,3′-didehydro-3′-deoxythymidine]"
label_class = "false (0)"

[[record]]
compound = "Nc1nc2c(ncn2COCCO)c(=O)[nH]1 [ACV, 9-(2-hydroxyethoxymethyl)guanine]"
label_class = "true (1)"


---

The entries below come with measured Average ΔCt ± SD COXII DNA values attached.
- Test system: mitochondrial cytochrome C oxidase subunit II (COXII) gene
- Format: cell-based, human
- Measurement parameters: HepG2, 10 μM, 7 days
Property: Average ΔCt ± SD COXII DNA

[[record]]
molecule = "Cc1cn([C@H]2C[C@H](N=[N+]=[N-])[C@@H](CO)O2)c(=O)[nH]c1=O [AZT, 3′-azido-3′-deoxythymidine, reference compound]"
result = "0.25 ± 0.13"

[[record]]
molecule = "Nc1ccn([C@@H]2CS[C@H](CO)O2)c(=O)n1 [Compound 3TC, (−)-β-2′,3′-dideoxy-3′-thiacytidine, reference compound]"
result = "0.08 ± 0.33"

[[record]]
molecule = "Nc1ccn([C@H]2S[C@@H](CO)C=C2F)c(=O)n1"
result = "−0.05 ± 0.16"

[[record]]
molecule = "Nc1nc(=O)n([C@@H]2S[C@H](CO)C=C2F)cc1F"
result = "−0.39 ± 0.43"


---

The entries below come with measured Average ΔΔCt ± SD COXII-β-actin values attached.
- Test system: mitochondrial cytochrome C oxidase subunit II (COXII) gene
- Assay type: cell-based, human
- Measurement parameters: HepG2, 10 μM, 7 days
Property: Average ΔΔCt ± SD COXII-β-actin

[[record]]
compound = "Nc1ccn([C@@H]2CS[C@H](CO)O2)c(=O)n1 [Compound 3TC, (−)-β-2′,3′-dideoxy-3′-thiacytidine, reference compound]"
property = "Average ΔΔCt ± SD COXII-β-actin"
quantitative_readout = "−0.02"

[[record]]
compound = "Cc1cn([C@H]2C=C[C@@H](CO)O2)c(=O)[nH]c1=O [D-D4T, β-D-2′,3′-didehydro-3′-deoxythymidine]"
property = "Average ΔΔCt ± SD COXII-β-actin"
quantitative_readout = 0.23


---

- Assay overview: in vitro
- Measurement parameters: human
The entries below come with measured IC50 at 3 days values attached.
Property: IC50 at 3 days

[[record]]
compound = "Nc1ccn([C@@H]2CS[C@H](CO)O2)c(=O)n1 [Compound 3TC, (−)-β-2′,3′-dideoxy-3′-thiacytidine, reference compound]"
result = "> 100 µM"

[[record]]
compound = "NC(=O)c1ncn([C@@H]2O[C@H](CO)[C@@H](O)[C@H]2O)n1 [Ribavirin, reference compound]"
result = "90 µM"

[[record]]
compound = "Cc1cn([C@H]2C[C@H](N=[N+]=[N-])[C@@H](CO)O2)c(=O)[nH]c1=O [AZT, 3′-azido-3′-deoxythymidine, reference compound]"
result = "> 100 µM"

[[record]]
compound = "Nc1ccn([C@@H]2C=C(F)[C@H](CO)O2)c(=O)n1"
result = "> 100 µM"


---

- Experimental target: adenosine deaminase (EC 3.5.4.4) (Bos taurus, UniProt P56658)
- Sequence (P56658 whole entry): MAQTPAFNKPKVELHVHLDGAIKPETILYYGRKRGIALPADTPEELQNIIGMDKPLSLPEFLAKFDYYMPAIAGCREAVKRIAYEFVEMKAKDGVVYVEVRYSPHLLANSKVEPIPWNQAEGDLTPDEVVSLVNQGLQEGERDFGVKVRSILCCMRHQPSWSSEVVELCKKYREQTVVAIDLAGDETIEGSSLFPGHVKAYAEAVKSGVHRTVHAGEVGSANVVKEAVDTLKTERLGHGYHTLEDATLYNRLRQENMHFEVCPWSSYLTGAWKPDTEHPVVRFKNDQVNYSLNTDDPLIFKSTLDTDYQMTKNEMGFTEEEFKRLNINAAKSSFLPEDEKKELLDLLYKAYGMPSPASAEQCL
- Assay overview: in vitro
- Measurement parameters: bovine, pH 7.4
Property: half-life at 20 μM (s)

[[record]]
molecule = "Nc1ncnc2c1ncn2[C@@H]1O[C@H](CO)[C@@H](O)[C@H]1O [Adenosine, reference compound]"
unit_descriptor = "s"
quantitative_readout = 30


---

- System: HIV-1 LAI (wild type)
- Assay overview: HIV-1 RT-assay on supernatant of acutely infected human PBM cells, strain LAI
- Format: cell-based
- Measurement parameters: 5 days, RT activity reduced by 90%
Field: label. Allowed values: fulfilled (EC90 < 700 nM) or not fulfilled (EC90 >= 700 nM).

[[record]]
compound = "Nc1ccn([C@H]2S[C@@H](CO)C=C2F)c(=O)n1"
label_class = "not fulfilled"

[[record]]
compound = "Nc1nc(=O)n([C@H]2C=C[C@@H](CO)O2)cc1F [D-D4FC, reference compound]"
label_class = "fulfilled"

[[record]]
compound = "Nc1nc(=O)n([C@H]2S[C@@H](CO)C=C2F)cc1F"
label_class = "not fulfilled"

[[record]]
compound = "Nc1ccn([C@@H]2C=C(F)[C@H](CO)O2)c(=O)n1"
label_class = "fulfilled"

[[record]]
compound = "Nc1nc(=O)n([C@@H]2S[C@H](CO)C=C2F)cc1F"
label_class = "not fulfilled"

[[record]]
compound = "Nc1ccn([C@@H]2S[C@H](CO)C=C2F)c(=O)n1"
label_class = "not fulfilled"


---

- System: mitochondrial cytochrome C oxidase subunit II (COXII) gene
- Type: cell-based, human
- Measurement parameters: COXII DNA normalized to rDNA, 2-ΔΔCt; HepG2, 10 μM, 7 days
Property: COXIINrDNA (range) relative to control

[[record]]
compound = "Nc1ccn([C@@H]2C=C(F)[C@H](CO)O2)c(=O)n1 [Compound 23]"
result = "0.78 (0.59-1.04)"

[[record]]
compound = "Nc1ccn([C@H]2CC[C@@H](CO)O2)c(=O)n1"
result = "0.23 (0.15-0.37)"

[[record]]
compound = "Nc1ccn(C2CSC(CO)O2)c(=O)n1 (single isomer, unassigned; (+)) [(+)-BCH-189, (+)-β-2′,3′-dideoxy-3′-thiacytidine]"
result = "0.20 (0.13-0.32)"

[[record]]
compound = "Nc1ccn([C@H]2S[C@@H](CO)C=C2F)c(=O)n1"
result = "1.46 (0.87-2.47)"

[[record]]
compound = "Nc1ccn([C@@H]2S[C@H](CO)C=C2F)c(=O)n1"
result = "1.94 (1.31-2.87)"

[[record]]
compound = "Nc1ccn([C@@H]2CS[C@H](CO)O2)c(=O)n1 [Compound 3TC, (−)-β-2′,3′-dideoxy-3′-thiacytidine, reference compound]"
result = "1.31 (0.92-1.88)"

[[record]]
compound = "Nc1nc(=O)n([C@@H]2S[C@H](CO)C=C2F)cc1F"
result = "0.96 (0.78-1.17)"

[[record]]
compound = "Nc1ccn([C@@H]2C=C(F)[C@H](CO)O2)c(=O)n1 [Compound 10]"
result = "1.16 (0.81-1.64)"

[[record]]
compound = "Nc1nc(=O)n([C@H]2S[C@@H](CO)C=C2F)cc1F"
result = "1.12 (0.76-1.64)"


---

- Test system: CEM (T-lymphoblastoid cell line)
- Format: cell-based
- Measurement parameters: human, 4 days
pIC50: −log10 of the molar value.
Property: pIC50

[[record]]
molecule = "Cc1cn([C@H]2C[C@H](N=[N+]=[N-])[C@@H](CO)O2)c(=O)[nH]c1=O [AZT, 3′-azido-3′-deoxythymidine, reference compound]"
experimental_target = "CEM (T-lymphoblastoid cell line)"
property = "pIC50"
quantitative_readout = 4.54

